system: Nanoluciferase (engineered Oplophorus gracilirostris luciferase); test: Primary Nanoluciferase (NLuc) qHTS assay for identification of artifact compounds. (AID 1845222); settings: NLuc-conditioned medium, Nano-Glo luminescence, 5 min; series mostly up to 54.1 µM;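 further: NLuc secreted into diluted conditioned medium of S16 cells; 0% = DMSO and -100% = no enzyme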
Calls of active or inactive are those of the source. The call rests on the fitted dose curve; in most records, active means well fitted inhibition curve with a large enough effect; inconclusive means small, poorly fitted or top-dose-only effect; inactive means flat fitted curve, though single readings scatter. Where a SMILES comes first, the peptide text is derived from it.
valueType: activity, negative = inhibition

CC1CCCCCCCc2cc(O)cc(O)c2C(=O)O1 (centres undefined) = inactive
Nc1ncnc2c1c(COc1cccc(Cl)c1)nn2C1CCOCC1 = inactive
COc1cc(O)c2c(c1Cl)CC(C)OC2=O (centres undefined) = inactive
CC1OC(O[C@@H]2[C@@H](O)[C@H](OC(=O)[C@]34CCC(C)(C)C[C@H]3C3=CCC5[C@@]6(C)CC[C@H](O[C@@H]7O[C@H](C(=O)O)[C@@H](O)[C@H](O[C@@H]8OC[C@@H](O)[C@H](O)[C@H]8O)[C@H]7O[C@@H]7O[C@H](CO)[C@H](O)[C@H](O)[C@H]7O)[C@@](C)(C=O)C6CC[C@@]5(C)[C@]3(C)C[C@H]4O)O[C@H](C)[C@@H]2OC2OC(C)C(OC3OCC(O)C(O)C3O)C(O)C2O)C(O)C(O)C1O (some centres undefined) = 2.13% [at 11.6 µM] (inactive)
CC(C)(O)/C=C/C(=O)[C@](C)(O)[C@H]1[C@H](O)C[C@@]2(C)[C@@H]3CC=C4[C@@H](C=C(O[C@@H]5O[C@H](CO)[C@@H](O)[C@H](O)[C@H]5O)C(=O)C4(C)C)[C@]3(C)C(=O)C[C@]12C = inactive
O=C(O)C(Cc1ccccc1)NC(=O)C1CCCN1 (stereo not drawn) (H-Pro-Phe-OH; configuration not given here) = inactive
COc1cc2c(cc1O)CC(O)(CO)C(CO)C2c1ccc(OC2OC(CO)C(O)C(O)C2O)c(OC)c1 (centres undefined) = inactive
COc1cc(O)c2c(c1)C1(OC2=O)C(C)=CC(=O)C1O (centres undefined) = inactive
CC1(C)CC[C@]2(C(=O)O[C@@H]3O[C@H](CO)[C@@H](O)[C@H](O)[C@H]3O)CC[C@]3(C)C(=CCC4[C@@]5(C)C[C@H](O)[C@H](O[C@@H]6O[C@H](C(=O)O)[C@@H](O)[C@H](O)[C@H]6O)[C@@](C)(CO)C5CC[C@]43C)C2C1 (some centres undefined) = 1.06% [at 11.6 µM] (inactive)
CC12CC34CC(O)C5C(CO)(CO)CC(=O)CC5(C)C3CC1C2C4 (centres undefined) = inactive
C=C1C(=O)O[C@@H]2CC(C)=C([C@@H](C)CCCOC(C)=O)[C@@H](O)[C@H]12 = inactive
CC(C/C=C/C(C)(C)O)C1CCC(C)(O)C(O)C1 (centres undefined) = inactive
C/C=C1/C[N+](C)([O-])C2Cc3c([nH]c4ccccc34)C(=O)CC1C2C(=O)OC (centres undefined) = inactive
CC(=O)NC1C(OC2CCC3(C)C(CCC4(C)C3CC=C3C5CC(C)(C)CCC5(C(=O)O)C(O)CC34C)C2(C)C)OC(CO)C(O)C1O (centres undefined) = inactive
